Biological target: human Cav3.2 channels (Homo sapiens, UniProt O95180)
Construct: expressed in transfected cells; host or cells: HEK293 cells (ATCC No. CRL-1573), plasmid pcDNA3.1(+)
Sequence (O95180 whole entry): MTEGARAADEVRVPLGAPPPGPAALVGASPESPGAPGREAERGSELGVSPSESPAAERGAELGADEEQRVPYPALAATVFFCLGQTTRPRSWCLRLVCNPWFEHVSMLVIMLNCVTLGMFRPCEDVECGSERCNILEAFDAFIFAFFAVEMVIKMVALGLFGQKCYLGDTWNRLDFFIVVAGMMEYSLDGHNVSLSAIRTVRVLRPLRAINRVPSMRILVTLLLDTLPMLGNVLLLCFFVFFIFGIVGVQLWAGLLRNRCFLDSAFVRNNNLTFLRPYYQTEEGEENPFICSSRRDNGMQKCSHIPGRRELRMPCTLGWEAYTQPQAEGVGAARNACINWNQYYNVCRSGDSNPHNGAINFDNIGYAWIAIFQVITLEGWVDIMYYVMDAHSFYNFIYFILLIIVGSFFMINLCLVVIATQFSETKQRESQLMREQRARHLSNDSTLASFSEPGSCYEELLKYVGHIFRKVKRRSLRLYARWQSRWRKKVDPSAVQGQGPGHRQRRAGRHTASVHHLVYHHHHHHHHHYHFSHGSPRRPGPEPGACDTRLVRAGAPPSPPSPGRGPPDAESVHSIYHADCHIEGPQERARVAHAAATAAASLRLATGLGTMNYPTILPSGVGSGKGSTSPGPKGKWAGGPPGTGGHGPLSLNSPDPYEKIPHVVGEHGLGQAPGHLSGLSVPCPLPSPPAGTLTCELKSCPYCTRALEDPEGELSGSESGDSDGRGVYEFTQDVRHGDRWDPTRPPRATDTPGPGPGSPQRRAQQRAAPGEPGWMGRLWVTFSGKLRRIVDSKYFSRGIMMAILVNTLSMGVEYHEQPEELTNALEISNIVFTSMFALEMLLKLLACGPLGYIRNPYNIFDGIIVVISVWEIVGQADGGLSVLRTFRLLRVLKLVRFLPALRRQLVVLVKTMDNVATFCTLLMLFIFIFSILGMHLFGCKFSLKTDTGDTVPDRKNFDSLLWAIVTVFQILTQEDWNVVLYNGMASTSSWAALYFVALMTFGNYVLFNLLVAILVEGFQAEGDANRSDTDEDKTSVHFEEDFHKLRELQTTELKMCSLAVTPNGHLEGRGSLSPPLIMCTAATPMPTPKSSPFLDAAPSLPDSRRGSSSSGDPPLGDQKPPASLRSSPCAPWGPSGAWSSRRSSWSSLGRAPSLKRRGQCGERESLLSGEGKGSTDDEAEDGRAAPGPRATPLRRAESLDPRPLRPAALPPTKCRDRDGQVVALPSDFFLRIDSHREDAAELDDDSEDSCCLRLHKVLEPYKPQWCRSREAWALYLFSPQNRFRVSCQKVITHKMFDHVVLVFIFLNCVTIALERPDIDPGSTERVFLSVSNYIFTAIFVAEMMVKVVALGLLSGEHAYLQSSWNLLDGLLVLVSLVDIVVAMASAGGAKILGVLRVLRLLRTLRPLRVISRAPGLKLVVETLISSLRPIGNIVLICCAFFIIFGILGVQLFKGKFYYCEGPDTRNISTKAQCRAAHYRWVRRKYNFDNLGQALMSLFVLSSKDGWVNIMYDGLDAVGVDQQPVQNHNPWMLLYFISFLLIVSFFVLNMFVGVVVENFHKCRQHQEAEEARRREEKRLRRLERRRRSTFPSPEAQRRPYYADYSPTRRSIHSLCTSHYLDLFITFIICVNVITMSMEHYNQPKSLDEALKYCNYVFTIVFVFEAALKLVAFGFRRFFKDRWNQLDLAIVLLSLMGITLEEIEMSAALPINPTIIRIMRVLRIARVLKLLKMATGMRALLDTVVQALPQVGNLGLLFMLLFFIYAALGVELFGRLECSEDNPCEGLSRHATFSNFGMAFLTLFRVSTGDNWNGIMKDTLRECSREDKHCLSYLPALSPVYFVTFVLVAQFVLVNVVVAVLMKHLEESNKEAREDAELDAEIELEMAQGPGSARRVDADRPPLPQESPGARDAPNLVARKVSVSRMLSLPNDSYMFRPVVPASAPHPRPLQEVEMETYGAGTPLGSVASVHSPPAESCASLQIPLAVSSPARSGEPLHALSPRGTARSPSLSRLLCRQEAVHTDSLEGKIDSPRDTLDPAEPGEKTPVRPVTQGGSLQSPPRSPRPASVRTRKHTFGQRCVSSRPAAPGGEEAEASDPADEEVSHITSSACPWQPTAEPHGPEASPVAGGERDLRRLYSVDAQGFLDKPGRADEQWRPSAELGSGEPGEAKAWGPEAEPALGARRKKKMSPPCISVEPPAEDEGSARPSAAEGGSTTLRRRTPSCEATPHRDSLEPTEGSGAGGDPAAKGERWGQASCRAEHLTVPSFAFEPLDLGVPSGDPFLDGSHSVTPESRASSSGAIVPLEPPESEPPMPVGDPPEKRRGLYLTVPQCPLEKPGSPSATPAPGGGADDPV
Assay: Intracellular calcium concentration measurement (Fluo-4 AM) in stable cells expressing human Cav3.2 channels, buffer A / buffer B
Assay type: cell-based
Conditions: Table 1; buffer A, equilibrium potential of potassium −92 mV; read-out: Inhibitory action of buffer A (inactivated state)
measureName: IC50

molecule	IC50
C[C@@H](NC(=O)[C@@H]1CCN(CC(=O)Nc2nccs2)C1)c1ccc(OCC(F)(F)F)s1	100 to 1000 nM
C[C@@H](NC(=O)[C@@H]1CCN(CC(=O)Nc2ccccc2)C1)c1ccc(OCC(F)(F)F)s1.Cl [Example 17, hydrochloride]	100 to 1000 nM
C[C@H](NC(=O)C1CC1c1nc2ccccc2[nH]1)c1cnc(OCC(F)(F)F)s1 (single isomer, unassigned) [Example 7A]	1000 to 10000 nM
C[C@@H](NC(=O)[C@@H]1CCN(CC(=O)NC(C)(C)C)C1)c1ccc(OCC(F)(F)F)s1.Cl [Example 15, hydrochloride]	100 to 1000 nM
CC(NC(=O)C1CC1c1nc2ccccc2[nH]1)c1cn(C(=O)OC(C)(C)C)c2ccccc12 (stereo not drawn)	100 to 1000 nM

[ask] Value lookup for IC50; key = C[C@H](NC(=O)C1CC1c1nc2ccccc2[nH]1)c1cnc(OCC(F)(F)F)s1 (single isomer, unassigned) [Example 7B]
[reply] 1000 to 10000 nM

[ask] Value lookup for IC50; key = C[C@@H](NC(=O)C1CC1c1nc2ccccc2[nH]1)c1ncc(Br)s1 (single isomer, unassigned) [Example 11A]
[reply] 1000 to 10000 nM

[ask] Value lookup for IC50; key = C[C@@H](NC(=O)C1CC1c1nc2ccccc2[nH]1)c1ccc(Br)s1 (single isomer, unassigned) [Example 6B]
[reply] 1000 to 10000 nM

[ask] Value lookup for IC50; key = C[C@@H](NC(=O)C1CC1c1nc2ccccc2[nH]1)c1ccc(OCC(F)(F)F)s1 (single isomer, unassigned) [Example 3B]
[reply] 1000 to 10000 nM

[ask] Value lookup for IC50; key = C[C@@H](NC(=O)C1CC1c1nc2ccccc2n1C)c1ccc(OCC(F)(F)F)s1 (single isomer, unassigned) [Example 4A]
[reply] ≤ 100 nM

----------
Molecular target: human Cav3.2 channels (Homo sapiens, UniProt O95180)
Construct: expressed in transfected cells; host or cells: HEK293 cells (ATCC No. CRL-1573), plasmid pcDNA3.1(+)
Experiment: Intracellular calcium concentration measurement (Fluo-4 AM) in stable cells expressing human Cav3.2 channels, buffer A / buffer B
Assay type: cell-based
Details: Tables 2 to 6; buffer A, equilibrium potential of potassium −92 mV; read-out: Inhibitory action of buffer A (inactivated state)
Attribute: IC50

Use these answered entries as a reference point.
compound	targetOrSystem	IC50
C[C@@H](NC(=O)[C@H]1C[C@@H]1c1nc2ccccc2[nH]1)c1ccc(C(=O)N2CC(F)(F)C2)s1	human Cav3.2 channels (Homo sapiens, UniProt O95180)	100 to 1000 nM
C[C@@H](NC(=O)C1CC1c1cc(F)cc(F)c1)c1ccc(OCC(F)(F)F)s1 (single isomer, unassigned) [Example 19A]	human Cav3.2 channels (Homo sapiens, UniProt O95180)	> 10000 nM
C[C@@H](NC(=O)[C@H]1C[C@@H]1c1nc2ccccc2[nH]1)c1ccc(C(=O)OC(C)(C)C)s1 [Example 25A]	human Cav3.2 channels (Homo sapiens, UniProt O95180)	100 to 1000 nM

Next compound, please.
[ask] Value lookup for IC50; key = C[C@@H](NC(=O)C1CC1c1nc2ccccc2[nH]1)c1ccc(C(=O)N2CCOCC2)s1 (stereo in doubt)
[reply] 1000 to 10000 nM

The reported numbers originate from patent US11420944B2.
